# studySystem: T1, cynomolgus monkey C-MET His tag, monomeric (cynomolgus monkey, UniProt A0M8R7 25-932 (Papio anubis entry))
# T1 construct: also called monomeric cyno C-MET; cyCMET
# T1 sequence (A0M8R7 25-932 S170N/I621T): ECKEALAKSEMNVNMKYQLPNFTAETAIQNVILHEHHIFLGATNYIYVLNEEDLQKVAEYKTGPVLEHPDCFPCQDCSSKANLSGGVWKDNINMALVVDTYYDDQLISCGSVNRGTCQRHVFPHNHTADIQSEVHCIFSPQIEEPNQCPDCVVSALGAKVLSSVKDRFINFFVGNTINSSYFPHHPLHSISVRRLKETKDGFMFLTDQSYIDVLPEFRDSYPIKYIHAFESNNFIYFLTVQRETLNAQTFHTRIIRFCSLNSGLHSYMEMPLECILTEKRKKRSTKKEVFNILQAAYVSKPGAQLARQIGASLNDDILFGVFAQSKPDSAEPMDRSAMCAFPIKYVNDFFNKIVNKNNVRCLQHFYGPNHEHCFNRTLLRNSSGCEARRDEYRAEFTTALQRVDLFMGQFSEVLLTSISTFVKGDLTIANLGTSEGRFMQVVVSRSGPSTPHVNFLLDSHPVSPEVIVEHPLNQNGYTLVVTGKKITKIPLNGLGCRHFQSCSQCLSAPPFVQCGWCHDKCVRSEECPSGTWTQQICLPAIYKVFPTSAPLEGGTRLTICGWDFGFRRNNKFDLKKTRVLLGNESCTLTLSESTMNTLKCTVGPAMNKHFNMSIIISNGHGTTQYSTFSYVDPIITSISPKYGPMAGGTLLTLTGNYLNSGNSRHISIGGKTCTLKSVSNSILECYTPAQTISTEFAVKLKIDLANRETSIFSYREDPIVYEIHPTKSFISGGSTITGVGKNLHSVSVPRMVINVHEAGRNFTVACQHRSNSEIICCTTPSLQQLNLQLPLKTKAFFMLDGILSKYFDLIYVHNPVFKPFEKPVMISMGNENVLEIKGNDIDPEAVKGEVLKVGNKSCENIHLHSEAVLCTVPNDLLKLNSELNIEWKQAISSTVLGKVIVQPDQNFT
# assay: SPR Biacore, IgG captured, monomeric C-MET-His analyte
# Experimental: Affinity (KD) of purified IgGs was determined via SPR with antigen in-solution on a Biacore® 3000 (GE). […] The obtained sensorgrams were analysed using the Biacore® 3000 evaluation (BIAevaluation) software. The KD was calculated by simultaneous fitting of the association and dissociation phases to a 1:1 Langmuir binding model.
pKd: −log10 of the molar value.
Each item that follows carries a reported pKd.
resultType: pKd

binder	testResult
MH7-1 (antibody, human IgG4, V domains shown) VH: QVQLVQSGAEVKKPGASVKVSCKASGYTFTSYTMHWVRQAPGQGLEWMGIINPSGGSTSYAQKFQGRVTMTRDTSTSTVYMELSSLRSEDTAVYYCARQEITTEFDYWGQGTLVTVSS VL: EIVLTQSPGTLSLSPGERATLSCRASQSVSSYANSYLHWYQQKPGQAPRLLIYRGSTRETGIPDRFSGSGSGTDFTLTISRLEPEDFAVYYCQQSKSEPLTFGGGTKVEIK	8.96
MH2 (antibody, IgG4, V domains shown) VH: QVQLVQSGAEVKKPGASVKVSCKASGYTFTSYTMHWVRQAPGQGLEWMGWINPNGGSTSYAQKFQGRVTMTRDTSTSTVYMELSSLRSEDTAVYYCARQEITTEFDYWGQGTLVTVSS VL: EIVLTQSPGTLSLSPGERATLSCRASQSVSSYAQSYLHWYQQKPGQAPRLLIYRGSTRETGIPDRFSGSGSGTDFTLTISRLEPEDFAVYYCQQSGSSPLTFGGGTKVEIK	9.06
